Biological target: T1, Ep-CAM (UniProt P16422 24-265, limits assumed)
T1 construct: Antigen of the Biacore analysis of ING-1 variants
T1 sequence (looked up): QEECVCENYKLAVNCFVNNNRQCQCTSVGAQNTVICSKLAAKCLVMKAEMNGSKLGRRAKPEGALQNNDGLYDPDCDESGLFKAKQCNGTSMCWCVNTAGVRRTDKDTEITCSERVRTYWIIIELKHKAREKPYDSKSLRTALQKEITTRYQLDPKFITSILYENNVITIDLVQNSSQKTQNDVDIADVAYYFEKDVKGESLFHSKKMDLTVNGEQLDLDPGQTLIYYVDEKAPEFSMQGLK
Assay: Biacore, Fab periplasmic extract
measuredProperty: binding result

>  <binder>
ING-1 heavy chain N52E (Fab, V domains shown) VH: QIQLVQSGPELKKPGETVKISCKASGYTFTKYGMNWVKQAPGKGLKWMGWIETYTEEPTYGDDFKGRFAFSLETSASTANLQINNLKSEDTATYFCARFGSAVDYWGQGTSVTVSS VL: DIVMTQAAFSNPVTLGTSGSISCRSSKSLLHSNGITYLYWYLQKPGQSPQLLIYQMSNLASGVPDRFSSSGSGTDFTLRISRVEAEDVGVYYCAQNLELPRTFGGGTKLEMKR

>  <recordedResult>
no binding

$$$$
>  <binder>
ING-1 heavy chain G100H (Fab, V domains shown) VH: QIQLVQSGPELKKPGETVKISCKASGYTFTKYGMNWVKQAPGKGLKWMGWINTYTEEPTYGDDFKGRFAFSLETSASTANLQINNLKSEDTATYFCARFHSAVDYWGQGTSVTVSS VL: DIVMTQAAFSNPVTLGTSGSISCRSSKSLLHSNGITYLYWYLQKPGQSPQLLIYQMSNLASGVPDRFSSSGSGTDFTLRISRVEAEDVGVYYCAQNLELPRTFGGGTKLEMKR

>  <recordedResult>
no binding

$$$$
>  <binder>
ING-1 heavy chain T55E (Fab, V domains shown) VH: QIQLVQSGPELKKPGETVKISCKASGYTFTKYGMNWVKQAPGKGLKWMGWINTYEEEPTYGDDFKGRFAFSLETSASTANLQINNLKSEDTATYFCARFGSAVDYWGQGTSVTVSS VL: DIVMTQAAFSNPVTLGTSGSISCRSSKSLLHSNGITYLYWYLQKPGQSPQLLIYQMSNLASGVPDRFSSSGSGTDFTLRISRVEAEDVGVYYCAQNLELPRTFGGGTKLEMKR

>  <recordedResult>
no binding

$$$$
